Provide the reported Activity of each item.
# Tested on: Rattus norvegicus
# EXPERIMENT: Hepatotoxicity in Sprague-Dawley rat assessed as total protein level per 100 ml of blood at 30 mg/kg, po after 15 days
# Type: toxicity, organism-based
# Set-up: dose 30 mg/kg, route oral
# RUN PARAMETERS: in vivo, 360 h

In the examples that follow, each entry is paired with its recorded Activity.
- SUBSTANCE SMILES: "Cc1ccc2nc(NC(=S)NC(=O)c3ccccc3Cl)sc2c1"
  Activity: "1.71 g"
- SUBSTANCE SMILES: "Cc1ccc2nc(NC(=S)NC(=O)c3ccc(Cl)cc3)sc2c1"
  Activity: "1.88 g"
- SUBSTANCE SMILES: "COc1ccc(C(=O)NC(=S)Nc2nc3ccc(Cl)cc3s2)cc1"
  Activity: "1.79 g"
- SUBSTANCE SMILES: "O=C(NC(=S)Nc1nc2ccc(F)cc2s1)c1ccccc1Cl"
  Activity: "1.83 g"

Take each entry in turn and give its Activity.
1. COc1ccc2nc(NC(=S)NC(=O)c3ccccc3Cl)sc2c1
2. O=C(NC(=S)Nc1nc2ccc(F)cc2s1)c1ccccc1
3. O=C(NC(=S)Nc1nc2ccc(Cl)cc2s1)c1ccc(Cl)cc1

1.98 g
1.8 g
1.9 g
